- Method summary: Activation of aldehyde dehydrogenase
Activity calls are given as the source filed them. The calls are words filed in the database; no cut-off is given here.
Quantity kind: Activity

Molecule smiles: COc1cc(C(=O)O[C@@H]2Cc3c(O)cc(O)cc3O[C@@H]2c2ccc(O)c(O)c2)cc(O)c1O
Quantity kind: Activity
Recorded value: inactive
//
Molecule smiles: C[C@@H]1O[C@@H](OC[C@H]2O[C@@H](Oc3c(-c4ccc(O)c(O)c4)oc4cc(O)cc(O)c4c3=O)[C@H](O)[C@@H](O)[C@@H]2O)[C@H](O)[C@H](O[C@@H]2O[C@H](CO)[C@@H](O)[C@H](O)[C@H]2O)[C@H]1O
Quantity kind: Activity
Recorded value: inactive
//
Molecule smiles: O=c1c(O[C@@H]2O[C@H](CO)[C@H](O)[C@H](O)[C@H]2O)c(-c2ccc(O)cc2)oc2cc(O)cc(O)c12
Quantity kind: Activity
Recorded value: inactive

----------
- System: Radical scavenging activity
- Method summary: Antioxidant activity assessed as DPPH radical scavenging activity after 30 mins by spectrophotometry
- Type: functional
Quantity kind: IC50 (µM)
Express your answer in µM, writing the number without its unit.

Compound: C[C@@H]1O[C@@H](OC[C@H]2O[C@@H](Oc3c(-c4ccc(O)c(O)c4)oc4cc(O)cc(O)c4c3=O)[C@H](O)[C@@H](O)[C@H]2O)[C@H](O)[C@H](O[C@@H]2O[C@H](CO)[C@@H](O)[C@H](O)[C@H]2O)[C@H]1O
Recorded value: 30.1
--
Compound: O=C(O[C@@H]1Cc2c(O)cc(O)cc2O[C@@H]1c1ccc(O)c(O)c1)c1cc(O)c(O)c(O)c1 [EPICATECHIN GALLATE]
Recorded value: 1.5
--
Compound: C[C@@H]1O[C@@H](OC[C@H]2O[C@@H](Oc3c(-c4ccc(O)c(O)c4)oc4cc(O)cc(O)c4c3=O)[C@H](O)[C@@H](O)[C@@H]2O)[C@H](O)[C@H](O[C@@H]2O[C@H](CO)[C@@H](O)[C@H](O)[C@H]2O)[C@H]1O
Recorded value: 7.7
--
Compound: C[C@@H]1O[C@@H](OC[C@H]2O[C@@H](Oc3c(-c4ccc(O)c(O)c4)oc4cc(O)cc(O)c4c3=O)[C@H](OC(=O)/C=C/c3ccc(O)cc3)[C@@H](O)[C@@H]2O)[C@H](O)[C@H](O)[C@H]1O [CAMELLIQUERCETISIDE D]
Recorded value: 29.2
--
Compound: COc1cc(C(=O)O[C@@H]2Cc3c(O)cc(O)cc3O[C@@H]2c2ccc(O)c(O)c2)cc(O)c1O
Recorded value: 10.8
--
Compound: C[C@@H]1O[C@@H](OC[C@H]2O[C@@H](Oc3c(-c4ccc(O)c(O)c4)oc4cc(O)cc(O)c4c3=O)[C@H](OC(=O)/C=C/c3ccc(O)cc3)[C@@H](O[C@@H]3OC[C@H](O)[C@H](O)[C@H]3O)[C@@H]2O)[C@H](O)[C@H](O)[C@H]1O [CAMELLIQUERCETISIDE C]
Recorded value: 31.9
--
Compound: O=C(/C=C\c1ccc(O)cc1)O[C@@H]1Cc2c(O)cc(O)cc2O[C@@H]1c1cc(O)c(O)c(O)c1
Recorded value: 26.4
--
Compound: C[C@@H]1O[C@@H](OC[C@H]2O[C@@H](Oc3c(-c4ccc(O)c(O)c4)oc4cc(O)cc(O)c4c3=O)[C@H](OC(=O)/C=C/c3ccc(O)cc3)[C@@H](O[C@@H]3OC[C@H](O)[C@H](O)[C@H]3O)[C@@H]2O)[C@H](O)[C@H](O[C@@H]2O[C@H](CO)[C@@H](O)[C@H](O)[C@H]2O)[C@H]1O [CAMELLIQUERCETISIDE A]
Recorded value: 19.8
--
Compound: O=c1c(O[C@@H]2O[C@H](CO)[C@@H](O)[C@H](O)[C@H]2O)c(-c2cc(O)c(O)c(O)c2)oc2cc(O)cc(O)c12
Recorded value: 28
--
Compound: C[C@@H]1O[C@@H](OC[C@H]2O[C@@H](Oc3c(-c4ccc(O)c(O)c4)oc4cc(O)cc(O)c4c3=O)[C@H](OC(=O)/C=C/c3ccc(O)cc3)[C@@H](O)[C@@H]2O)[C@H](O)[C@H](O[C@@H]2O[C@H](CO)[C@@H](O)[C@H](O)[C@H]2O)[C@H]1O [CAMELLIQUERCETISIDE B]
Recorded value: 22

Attention now turns to another entry.
# IC50 of "O=C(O[C@@H]1Cc2c(O)cc(O)cc2O[C@@H]1c1ccc(O)cc1)c1cc(O)c(O)c(O)c1" = 2.8

Reference source for all entries: ChEMBL document CHEMBL1955735
